Kindly supply the reported apparent KD of MS2 coat protein values for the records listed here.
# Tested on: MS2 coat protein
# experiment: apparent KD of MS2 coat protein; designed switch direction (-1 OFF switch, 1 ON switch): 1; higher = weaker reporter binding
# experimental.conditions: Eterna round: R95; input ligand: microRNA oligo, concentration not stated
# number only, unit nM dropped from output

Let me know recorded apparent KD of MS2 coat protein for UUUAGUUGCGGGCAGGAUAUGUAUUAAAAUACAUGAGGAUCACCCAUGUGAGAUCGAAAAGAUCUACAGAAGGGCCAAUCGCGAC [Laonerce - 24] (puzzle: Same State 2) , thanks.
58.3

Let me know recorded apparent KD of MS2 coat protein for AUAAAACAUGAGGAUCACCCAUGUCAACAAAGUCGAGGAUAUGGGCUAAUAAAAUAAGAACCAGAAGGCGAAUAAU [salish99_ss1_r3_027] (puzzle: Same State 1) , thanks.
152

Let me know recorded apparent KD of MS2 coat protein for UUUGGGUGGCUGGAGGAUAUUCUAGUGGUUACAUGAGGAUCACCCAUGUGUCGCGCGGUUCGCGAGGAGAAGGCUGGCGGCCGUU (puzzle: Same State 2) , thanks.
93.3

Let me know recorded apparent KD of MS2 coat protein for CGUCCGGCCUGUGCUGGCCGGAAGCAUGUACAUGAGGAUCACCCAUGUUCUUGUGCAGGCUUUUUGCUCGUCUUGUG [salish99_mir208a_010] (puzzle: Sensor for hsa-mir-208a) , thanks.
14.7

Let me know recorded apparent KD of MS2 coat protein for CGUUCAUACUCAGGACGGAGAGUAGAGGAACAUGAGGAUCACCCAUGUAUGAGCUUUUUGCUCGUCAUGAACAGGAG [JR_SHM208a_Sub011] (puzzle: Sensor for hsa-mir-208a) , thanks.
72.2

Let me know recorded apparent KD of MS2 coat protein for AUAAGUUCGAUGCUCGUCUCUCCGUACUAACAUGAGGAUCACCCAUGUGAUCGGGCAGUAGCCCGAUCAGUAUGGCC [Bizain] (puzzle: Sensor for hsa-mir-208a) , thanks.
68.3

Let me know recorded apparent KD of MS2 coat protein for CGUCCGGCCUGUGCUGGCCGGUGGCUUGUACAUGAGGAUCACCCAUGUUCUUGUGCUGGCUGUUUGCUCGUCUUGUG [salish99_mir208a_r3_021] (puzzle: Sensor for hsa-mir-208a) , thanks.
22.6

Let me know recorded apparent KD of MS2 coat protein for CGUCCGGCCUGUGCUGGCCGGUAGCUUGUACAUGAGGAUCACCCAUGUUCUUGUGCAGGCUUUUUGCUCGUCUUGUG [salish99_mir208a_016] (puzzle: Sensor for hsa-mir-208a) , thanks.
23.9

Let me know recorded apparent KD of MS2 coat protein for GAGUGAUGGGUUAGUAACUGCUGGGAAGGACAUGAGGAUCACCCAUGUGAGUAGCGAGCUUGUGCUCGUCUUAUUAG [JR_SHM208A_Sub023] (puzzle: Sensor for hsa-mir-208a) , thanks.
114

* * *

Kindly supply the reported apparent KD of K4 kissing-loop reporter values for the records listed here.
# Test system: K4 kissing-loop RNA reporter;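 also: bound reporter read as fluorescence of individual clusters on recovered sequencing chips by microscopy, with normalized cluster intensities fitted with a binding model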
# experiment: apparent KD of K4 kissing-loop reporter; higher = weaker reporter binding
# experimental.conditions: Eterna round: R107; input ligand: tryptophan 2.4 mM
# number only, unit nM dropped from output

Enter recorded apparent KD of K4 kissing-loop reporter with K4 kissing-loop RNA reporter for UGUGAUGAGUAGAGUGAUGUUUUGAAGGAUACCAGAGUGUUGUUAUUCCCUUGGCAGCUUGAGUGAUGUUUGAUGUUGUUGUAGU [zizmullin] here.
196

Enter recorded apparent KD of K4 kissing-loop reporter with K4 kissing-loop RNA reporter for AAAAUAAAUAGCAGUCAUGGAGUGAUGUUCCGAGGACCGGUACGGCCGCCACUCGACCAUCAUAAGAUGGAAUGGCGAGACUGCA [#SwitchBubble 22 #K4Early] here.
520

Enter recorded apparent KD of K4 kissing-loop reporter with K4 kissing-loop RNA reporter for UUUGGAGUGGGAGGAUAUCCUAAUAUGGGUGAUGUUAGCGAUGUUGAAGGUGUAGUGAUGUUAUGCGGAGAAGGCCCACUGUAGA [BDazzled - #19 - Exc. FMN B] here.
89.2

Enter recorded apparent KD of K4 kissing-loop reporter with K4 kissing-loop RNA reporter for GACUCAUGUAGAAGGAGCGUCAGAAGCUACAGACAUGAGUGAUGUUCAUGUUAGUUGAUUUGACAGGUAGGUCGCUACAGCAGGA [KL-SSArg B15 #analogue] here.
229

Enter recorded apparent KD of K4 kissing-loop reporter with K4 kissing-loop RNA reporter for UUGAUAUGAUAGUAUCCUGUUUGAUAAAGGCAGGAUAUCGAAAAUUCGAGAAGGGCCAUUAUAUGCAGUGAUGUUGCAAAUAAGU [Exclusion FMN A Gf 24] here.
43.6

Enter recorded apparent KD of K4 kissing-loop reporter with K4 kissing-loop RNA reporter for UAGGGCAUCGCAGGAUAUCCUGCUUAACGUUGGAUUCCAGUGAUGUUGGAAAGCCGGCCUAGGGUAGGAGAAGGGCGGACUUGAA [Riteteve] here.
242

Enter recorded apparent KD of K4 kissing-loop reporter with K4 kissing-loop RNA reporter for AAAAGCCAGCAAGGAUAUACGCGCGAAGCAUCCAUGGUGCCAGUUCCAGUGAUGUUGGACCACAUCGUAGAAGGUGCGCGGCUCA [theeternabot_sameState_KL_FMN_B_33] here.
274

Enter recorded apparent KD of K4 kissing-loop reporter with K4 kissing-loop RNA reporter for `AAAUAGAUCAGUCAUCCAGUGAUGUUGGAAGGAGCGUGCGAAAGCACAGGUAGGUCGCCAAAAUAAAAGUGGCUGAUCAAAAUAA` here.
302

Enter recorded apparent KD of K4 kissing-loop reporter with K4 kissing-loop RNA reporter for AGGACGGUUAUGGAUACCAGUCCGGAACUUGUCCAUGGAGUGAUGUUCCGUCCAGCUCCGGACCCUUGGCAGCCAGACUGCUGAA [theeternabot_sameState_KL_Theo_B_41] here.
198

Enter recorded apparent KD of K4 kissing-loop reporter with K4 kissing-loop RNA reporter for GGGAAUUACGGAGGAUAUGCACUGAGGAGGAGAAUAUAGUGAUGUUAUAUAAGAGGAAGGAGAAGAGUAGAAGGCCGUGGAAAGG [SSFMNB.D] here.
141

Enter recorded apparent KD of K4 kissing-loop reporter with K4 kissing-loop RNA reporter for AUUAAGAUAUGAGUGAUGUUUAUGUCCGAAGGAGCGUGCGAAAGUACAGGUAGGUCGCGGAUGUGAGUGAUGUUUAUGUAAGCGU [KL-XArg-A15 #analogue] here.
83.4

Enter recorded apparent KD of K4 kissing-loop reporter with K4 kissing-loop RNA reporter for AUAUAAGUCGGAGGAUAUCCAGUGAUGUUAUGUUGUGAUGUUUAGUGAUGUUAGGCAUCAGUGAAGGGAGAAGGCCGUAAGUGAU [APPLE] here.
78.9

* * *

# Tested on: MS2 coat protein
# experiment: apparent KD of MS2 coat protein; designed switch direction (-1 OFF switch, 1 ON switch): -1; higher = weaker reporter binding
# experimental.conditions: input ligand: microRNA oligo, concentration not stated
Lab note: anything with apparent KD of MS2 coat protein at or over 30 nM counts as class 1; the rest go in class 0.

Exam item: decide whether the reported apparent KD of MS2 coat protein for AAGGGUGCCUUUAGAAAGACAUGAGGAUCACCCAUGUAGACUGAGGAUAUCCACUCCUAAGGACCGGAGAAGGCAGUGUAAUGC [Ex NG3 #62] (Eterna round: R96, puzzle: Exclusion NG 3) is at least 30 nM.
class 0

Exam item: decide whether the reported apparent KD of MS2 coat protein for UUGUUGUAUGUAGGAUAUGCGUAUUAUUAUUAUGCAGAAGGACAUGAGGAUCACCCAUGUAUAUUAUUAUUAUAUAUUAUAUAU [Title] (Eterna round: R96, puzzle: Exclusion NG 1) is at least 30 nM.
class 0

Exam item: decide whether the reported apparent KD of MS2 coat protein for AAAUAACAAGCGAGAUCCUACAUGAGGAUCACCCAUGUGCUCGUCUUAAUAAGUACUAUCACGAAAGUGAUAGUACA [Mat - Sensor v3 - turn-off var 1 - Eli Mod - D67] (Eterna round: R96, puzzle: Sensor v3, turn-off variant 1) is at least 30 nM.
class 1

Exam item: decide whether the reported apparent KD of MS2 coat protein for UACAUGAGGAUCACCCAUGUUUUGUCGUGUAUGGUAUUUAUCUAGGAUAUCAAUGUAUUUAUGUAUGAGAAGGAGAAUAUUAAU [JMF's solution 47] (Eterna round: R96, puzzle: Exclusion NG 3) is at least 30 nM.
class 1

Exam item: decide whether the reported apparent KD of MS2 coat protein for UACAUGAGGAUCACCCAUGUUUUGUCGUGUUUGGUACCCGUUUAGGAUAUCGUGUUAUUGGACCGCGAGAAGGAGAGUAUCUUU [Excl-NG3-LRO07] (Eterna round: R96, puzzle: Exclusion NG 3) is at least 30 nM.
class 0

Exam item: decide whether the reported apparent KD of MS2 coat protein for AAAAAAAGACAAGAGGAGAAUCGUCUUAAAAAUCCUCAGACAUGAGGAUCACCCAUGUAAAAUGAUCGAAAGAUCAA [Mat - Sensor v2 - ver2 - JL mod - D42] (Eterna round: R96, puzzle: Sensor v2, turn-off variant 2) is at least 30 nM.
class 1

Exam item: decide whether the reported apparent KD of MS2 coat protein for CACCGUUACUGAGGAUAUCCUACAUGAGGAUCACCCAUGUAAUAAAUGAGAAUUUCGGAUGUAUUGGAGAAGGCAGAAAUCGGC [Ostricism 62 - Jieux - Exclusion NG 2] (Eterna round: R96, puzzle: Exclusion NG 2) is at least 30 nM.
class 1

Exam item: decide whether the reported apparent KD of MS2 coat protein for AAACUACUAGGAUAUACAACGGUGUCCUAACUACUAAGAAAACAUGAGGAUCACCCAUGUAGAAGGAGUAGUGA [Lauslabe] (Eterna round: R96, puzzle: Exclusion 2) is at least 30 nM.
class 0

Exam item: decide whether the reported apparent KD of MS2 coat protein for UGUUGUCGCGUAGGAUAUGCAUGAGGAUCACCCAUGCAAUUAGAGUUAACAUGAGGAUCACCCAUGUAGAAGGGCGGGACAACU [pwkr exNG2 2xF5 1xFMN.7] (Eterna round: R96, puzzle: Exclusion NG 2) is at least 30 nM.
class 1

Exam item: decide whether the reported apparent KD of MS2 coat protein for GGAUAUAACGUAGGAUAUCUGAGAAACAGACGAAGAGAAGGACGACAUGAGGAUCACCCAUGUGAUCUAUCAAUAUUAUACAUG [Prohibition 99 - Jieux - Exclusion NG 1] (Eterna round: R96, puzzle: Exclusion NG 1) is at least 30 nM.
class 1

Exam item: decide whether the reported apparent KD of MS2 coat protein for UGUUGUUGCGUAGGAUAUUGCCAACAGGCAGUAGGAUAUGCGAAAGCAGAAGGACCGCCAACAGGCGAGAAGGACGGGACAACU [pwkr exNG2 2xF7 2xFMN.13] (Eterna round: R96, puzzle: Exclusion NG 2) is at least 30 nM.
class 1

Exam item: decide whether the reported apparent KD of MS2 coat protein for ACAUGAGGAUCACCCAUGUUUGGCUGGUUUUCUCCGGCUGUCGAGGAUAUAGUCCGGUAUCCGCGCUAGAAGGUGAGGGCUGGC [Aenatbe mod 5] (Eterna round: R96, puzzle: Exclusion NG 3) is at least 30 nM.
class 0

Exam item: decide whether the reported apparent KD of MS2 coat protein for AGCUGUGGCCGAGGAUAUCUGAACUCAAUAACCGAAAUAUAAUCGGACAUGAGGAUCACCCAUGUAGAGAAGGCGGUCUCAGCA [Eli eng2 - 080] (Eterna round: R96, puzzle: Exclusion NG 2) is at least 30 nM.
class 0

Exam item: decide whether the reported apparent KD of MS2 coat protein for UUAAUUAAUUAAGGCUGAAGAUCACAUGAGGAUCACCCAUGUAAGGAUAUCAGCUCGUUUAGAGCUGAGAAGGUACAUGCAGCC [ExNG3/18-B2] (Eterna round: R96, puzzle: Exclusion NG 3) is at least 30 nM.
class 1

Exam item: decide whether the reported apparent KD of MS2 coat protein for AUUCUUCAUAUCACAUGAGGAUCACCCAUGUUAUUCAUCGCGUAGGAUAUCGAGAAUUUUAAAUACGAGAAGGACGAAUUGAUA [JR_ExcNG3_Sub071] (Eterna round: R96, puzzle: Exclusion NG 3) is at least 30 nM.
class 1

Exam item: decide whether the reported apparent KD of MS2 coat protein for ACAUGAGGAUCACCCAUGUACUGGGUUUAGUUUCAUCGUUUGAAGGAUAUACUCCGUUAGUUGUCGUAGAAGGUCACAGUUUGG [JR_ExcNG3_Sub008] (Eterna round: R96, puzzle: Exclusion NG 3) is at least 30 nM.
class 1

Exam item: decide whether the reported apparent KD of MS2 coat protein for ACAUGAGGAUCACCCAUGUAAACAUGAUGGCUGAUGUAGAGCUAGGAUAUGAGUGGCUUUCUAUCUCAGAAGGAGCUUGACUGG [Deportation 43 - Jieux - Exclusion NG 3] (Eterna round: R96, puzzle: Exclusion NG 3) is at least 30 nM.
class 0
